tested on: Type-1 angiotensin II receptor (Oryctolagus cuniculus); experiment: In vitro inhibitory activity against Angiotensin II receptor in rabbit aorta was evaluated
recorded_endpoint: pKB

**Query** If you can, please state the reported pKB value of CCc1nc2c(C)cc(C(=O)O)nc2n1Cc1ccc2oc(-c3ccccc3NS(=O)(=O)C(F)(F)F)c(Br)c2c1 .
**Result** 9.3

**Query** What about this compound? CCc1nc2c(C)cc(CO)nc2n1Cc1ccc2oc(-c3ccccc3NS(=O)(=O)C(F)(F)F)c(Br)c2c1
**Result** 8.6

**Query** Try the compound CCc1nc2c(C)ccnc2n1Cc1ccc2oc(-c3ccccc3NS(=O)(=O)C(F)(F)F)c(Br)c2c1
**Result** 8.3

**Query** Now the same for CCc1nc2c(C)cc(C)nc2n1Cc1ccc2oc(-c3ccccc3NS(=O)(=O)C(F)(F)F)c(Br)c2c1
**Result** 9.3

All figures here come from ChEMBL document CHEMBL1159143.
